Reported growth values are given for each entry in this list.
# Test system: SR leukemia
# experiment: NCI-60 one-dose screen, 48 h (100 = growth as untreated, 0 = no growth, -100 = all killed)
# test.conditions: 10 µM unless noted
This is part of a sample that, as a whole, favours compounds with a hit. Of some 83,000 tested, about 20% had one in any assay.
Respond numerically; units are % and should not be typed.

Consider the reported growth for these compounds:
Using known records, supply growth for CCOC(=O)c1c(-c2ccc(Cl)cc2)c(C#N)c2c(C#N)c(N)nn2c1N
11.9

Using known records, supply growth for Cc1ccc(Nc2nc(-c3ccc(F)cc3)c(C#N)c(=O)n2C)cc1
62.3

Further cases:
Using known records, supply growth for CC(CN)[C@@H]1CC[C@]2(CO)CC[C@]3(C)[C@H](CC[C@@H]4[C@@]5(C)CCC(N)C(C)(C)[C@@H]5CC[C@]43C)[C@@H]12 (some centres undefined)
-46.4

Using known records, supply growth for N=C(N)c1ccc(-c2ccc(-c3ccc(Cl)cc3)o2)o1
-28.8

Using known records, supply growth for COc1cc(/C=C/c2cc(/C=C/c3ccc(O)c(OC)c3)n(C(=O)Nc3ccc(F)cc3)n2)ccc1O
2.53

Using known records, supply growth for CCN1C(=O)N(CC)C2C1NN=c1s/c(=C3\C(=O)N(CCc4ccccc4)c4ccccc43)c(=O)n12 (centres undefined)
10.7

Using known records, supply growth for Cc1ccc(C)c(-n2c(-c3ccc(Br)cc3)csc2=NC(=O)c2ccccc2F)c1
-11.5

Using known records, supply growth for COc1ccc2nc(SCC(=O)Nc3ccccc3C)[nH]c2c1
89.5

Using known records, supply growth for Fc1ccc2c(c1)c(-c1nc(-c3c[nH]c4ncccc34)cs1)cn2CCCN1CCOCC1
12.1

###

# System: M14 melanoma
# experiment: NCI-60 one-dose screen, 48 h (100 = growth as untreated, 0 = no growth, -100 = all killed)
# test.conditions: 10 µM unless noted
Compounds without any hit were thinned out: in the full panel of roughly 83,000, 20% have a hit.
metric.name: growth (%)
Respond numerically; units are % and should not be typed.

Find growth for COc1ccc2[nH]cc(-c3nc(-c4cn(C)c5ccncc45)cs3)c2c1 on M14 melanoma and write it down.
-88.7

Find growth for COc1ccc(-c2ccc(-c3ccc(C(=N)N)cn3)s2)cc1 on M14 melanoma and write it down.
101

Find growth for Clc1nccc2c(-c3csc(-c4c[nH]c5ccccc45)n3)c[nH]c12 on M14 melanoma and write it down.
-26.6

Find growth for C/C(C=O)=C\c1ccc2c(c1)OCO2 on M14 melanoma and write it down.
121

Find growth for N=C(N)c1ccc(-c2ccc(-c3ccc(Cl)cc3)o2)o1 on M14 melanoma and write it down.
19.7

Further cases:
Find growth for Cn1cc(/C=C2/C(=O)Nc3ccccc32)c2ccccc21 on M14 melanoma and write it down.
92.3

Find growth for CCSC1=CC(=O)c2ccccc2C1=O on M14 melanoma and write it down.
84.1

Find growth for CC(O)c1ncc(/C=C2\SC(=S)N(Cc3ccccc3)C2=O)s1 (configuration not stated) on M14 melanoma and write it down.
93.8

###

# Test system: SW-620 colon
# experiment: NCI-60 one-dose screen, 48 h
# test.conditions: 10 µM unless noted
About 83,000 compounds went through this panel and 20% of them were active in at least one assay; those are over-represented in the sample as a whole. Calls of active or inactive are those of the source. Rule for the calls: active = growth percent below 10; inactive = the rest.
Hello, when you answer, please use one of the following outcomes: active, inactive

Lab log entry: N=c1c2c(=N)n3c(nc2nc2n1-c1ccccc1Sc1ccccc1-2)sc1cc(Cl)ccc13 — outcome as called in the assay?
inactive

Lab log entry: N#C/C(=C\c1ccc(Br)cc1)c1cc2ccccc2[nH]1 — outcome as called in the assay?
inactive

Lab log entry: COc1ccc(Cl)cc1Nc1nc(C(F)(F)F)ccc1C(=O)N/N=C/c1ccccc1Cl — outcome as called in the assay?
active

Lab log entry: COc1cccc(NC(=O)c2cccc(C3CCc4c(cc(OC)c(OC)c4OC)O3)c2)c1 (stereo not given) — outcome as called in the assay?
inactive

Now examine the next entry.
Lab log entry: CCN(CC)S(=O)(=O)c1ccc(S(=O)(=O)N2CCC[C@@H](C(=O)N3CCN(C(=O)OC(C)(C)C)CC3)C2)cc1 — outcome as called in the assay?
inactive
